- study_target: CaMyo5
- assay_comment: SPOT peptide array binding signal intensity (averaged, normalized) (arbitrary units (background-subtracted, floor 0; scale differs between SH3 domains)); higher = stronger binding of the SH3 domain to the peptide
SPOT peptide array binding signal intensity below 6 gives False; SPOT peptide array binding signal intensity at or above it gives True.

[Q] Check this binder for SPOT peptide array binding signal intensity at or above 6: IPSRPAPKPPSSASA
[A] True

[Q] Check this binder for SPOT peptide array binding signal intensity at or above 6: NFKRLLPRDPSEKSS
[A] True

[Q] Check this binder for SPOT peptide array binding signal intensity at or above 6: IFLRISINFPLNYPN
[A] True

[Q] Check this binder for SPOT peptide array binding signal intensity at or above 6: FIRKRAPTPPAPSRS
[A] True

[Q] Check this binder for SPOT peptide array binding signal intensity at or above 6: FYNRTAFQLPGDARV
[A] True

[Q] Check this binder for SPOT peptide array binding signal intensity at or above 6: RMVRRRPLRVQFSAR
[A] True

[Q] Check this binder for SPOT peptide array binding signal intensity at or above 6: DHPKGPPPPPPPDEK
[A] True

[Q] Check this binder for SPOT peptide array binding signal intensity at or above 6: PAPPPPPRASRPTPN
[A] False

[Q] Check this binder for SPOT peptide array binding signal intensity at or above 6: NLDRSKISLPDFDDE
[A] True

[Q] Check this binder for SPOT peptide array binding signal intensity at or above 6: KNPRRQLQIPRQQPS
[A] False

[Q] Check this binder for SPOT peptide array binding signal intensity at or above 6: LSKRLPLRFPEHTSS
[A] False

[Q] Check this binder for SPOT peptide array binding signal intensity at or above 6: NNNKMRPHLPPLSSG
[A] True

[Q] Check this binder for SPOT peptide array binding signal intensity at or above 6: VATSTSPKLPPRGKQ
[A] False

[Q] Check this binder for SPOT peptide array binding signal intensity at or above 6: PKMLPIPSKPTLFDL
[A] True

[Q] Check this binder for SPOT peptide array binding signal intensity at or above 6: LKVTPGRRAPTISKI
[A] True

[Q] Check this binder for SPOT peptide array binding signal intensity at or above 6: VRTRRRPPPPPIPST
[A] True

[Q] Check this binder for SPOT peptide array binding signal intensity at or above 6: KTKQQKPAIPQKKSF
[A] False

[Q] Check this binder for SPOT peptide array binding signal intensity at or above 6: KKIRLIFTYPSTVGR
[A] True

[Q] Check this binder for SPOT peptide array binding signal intensity at or above 6: VPPVPLPFGIPPFPM
[A] True

[Q] Check this binder for SPOT peptide array binding signal intensity at or above 6: DDEDVPPQLPTRTKS
[A] False

[Q] Check this binder for SPOT peptide array binding signal intensity at or above 6: AERNYAPRLPRRETS
[A] False

[Q] Check this binder for SPOT peptide array binding signal intensity at or above 6: QPWTDQFEKLEKEVS
[A] False

[Q] Check this binder for SPOT peptide array binding signal intensity at or above 6: RTRRRPPPPPIPSTQ
[A] True

[Q] Check this binder for SPOT peptide array binding signal intensity at or above 6: RLPAPPPPPRRGPAP
[A] True

[Q] Check this binder for SPOT peptide array binding signal intensity at or above 6: RAPPPVPKKPSSRIA
[A] False

[Q] Check this binder for SPOT peptide array binding signal intensity at or above 6: KTRLRPAFIQQLWSS
[A] False

[Q] Check this binder for SPOT peptide array binding signal intensity at or above 6: TSIEIPKRSPLRFTS
[A] False

[Q] Check this binder for SPOT peptide array binding signal intensity at or above 6: YVRRRPRVRLEPLLS
[A] True

[Q] Check this binder for SPOT peptide array binding signal intensity at or above 6: VAPPPLPNRQLPNLD
[A] False

[Q] Check this binder for SPOT peptide array binding signal intensity at or above 6: ANNQGPPNLPARDKS
[A] False
